These data points were gathered from patent US20060154889A1.

Test system: XACAGCTGT
Assay: Dangling-end thermal denaturation, sequence XACAGCTGT (Table 1)
Format: physicochemical
Details: difference from core duplex
Form field: ΔΔG stacking (one value per entry).

Sample answers from the record:
Lab book: ΔΔG stacking of OC[C@H]1O[C@@H](c2cc(F)c(F)c(F)c2F)C[C@@H]1O noted as 2.3 ± 0.2

get_value(item= OCC1OC(c2cc(F)c(F)cc2F)CC1O (centres unmarked) , readout=ΔΔG stacking) returns 1.9 ± 0.2

// ΔΔG stacking value for OC[C@H]1O[C@@H](c2c(F)c(F)c(F)c(F)c2F)C[C@@H]1O : 1.3 ± 0.1

The recorded ΔΔG stacking for entry OC[C@H]1O[C@@H](c2c(F)cc(F)cc2F)C[C@@H]1O equals 1.3 ± 0.2

Read the next record carefully.
Quick note, ΔΔG stacking for OC[C@H]1OC(c2ccc(F)cc2)C[C@@H]1O (some centres unmarked) landed at 1.8 ± 0.1
